Test system: HL-60
Assay: Growth inhibition of human HL60 cells at 10 uM incubated for 48 hrs in presence of 0.1 uM ATRA by MTT assay
Type: functional
Value Kind: growth inhibition (GI)
Write down the value, and be sure its unit follows.

Compound: CCOC(=O)C(Cn1ccnc1)NC(=O)c1nc2ccccc2s1 (stereo unspecified)
growth inhibition (GI): 45.4%

// batch mode: one growth inhibition (GI) value per listed entry
1. COC(=O)C(Cn1ccnc1)NC(=O)c1ccc(-c2ccccc2)cc1 (stereo unspecified)
2. COC(=O)C(Cn1ccnc1)NC(=O)c1c(C)nn(-c2ccccc2)c1Cl (stereo unspecified)
3. COC(=O)C(Cn1ccnc1)NC(=O)c1nc2ccccc2s1 (stereo unspecified)
4. CC(C)COC(=O)C(Cn1ccnc1)NC(=O)c1nc2ccccc2s1 (stereo unspecified)
5. Cc1nn(-c2ccccc2)c(Cl)c1C(=O)NC(Cn1ccnc1)C(=O)OCC(C)C (stereo unspecified)

1: 51.38%; 2: 55.36%; 3: 50.36%; 4: 43.33%; 5: 43.54%

----------
Target: Cytochrome P450 2D6 (Homo sapiens)
Sequence (P10635 whole entry): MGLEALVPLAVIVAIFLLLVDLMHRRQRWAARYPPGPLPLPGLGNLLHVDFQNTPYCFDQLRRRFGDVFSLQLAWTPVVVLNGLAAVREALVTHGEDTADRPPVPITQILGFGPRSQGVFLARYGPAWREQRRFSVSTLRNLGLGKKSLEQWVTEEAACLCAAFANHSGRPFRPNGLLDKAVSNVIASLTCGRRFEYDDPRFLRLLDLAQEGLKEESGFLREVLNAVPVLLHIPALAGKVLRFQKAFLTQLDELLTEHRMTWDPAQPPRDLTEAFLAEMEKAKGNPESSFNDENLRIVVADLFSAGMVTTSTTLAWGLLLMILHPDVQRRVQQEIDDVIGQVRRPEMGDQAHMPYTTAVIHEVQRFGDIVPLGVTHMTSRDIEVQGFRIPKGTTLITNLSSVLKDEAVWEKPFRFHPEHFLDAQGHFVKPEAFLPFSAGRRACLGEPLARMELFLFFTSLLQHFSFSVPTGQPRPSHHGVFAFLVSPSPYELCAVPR
Test: Inhibition of CYP2D6 (unknown origin) incubated for 45 mins using NADPH and ATRA by HPLC assay
Assay type: ADME
Value Kind: pIC50
Give bare numbers, as −log10 of the molar value.

Compound: Cc1nn(-c2ccccc2)c(Cl)c1C(=O)NC(Cn1ccnc1)C(=O)OC(C)C (configuration not stated)
pIC50: 5.02

Reported pIC50 for COC(=O)C(Cn1ccnc1)NC(=O)c1c(C)nn(-c2ccccc2)c1Cl (configuration not stated) was 5.25
